# EXPERIMENTAL_DETAILS: Cyclodextrin solubilization screening of AOL
# Type: physicochemical
# CONDITION_PARAMETERS: aqueous cyclodextrin solution, 25 °C, aqueous with cosolvent or surfactant or cyclodextrin, thermodynamic from solid, HP-β-CD 100 mM, stirring 20 h
PROPERTY_MEASURED: solubility at 20 h
Mention the unit after the number when you answer.

# input Any idea what solubility at 20 h was measured for COc1ccc(-c2cc(=S)ss2)cc1 ?
# output 95.5 µg/mL

----------
# EXPERIMENTAL_DETAILS: Cyclodextrin solubilization screening of AOL
# Format: physicochemical
# CONDITION_PARAMETERS: aqueous cyclodextrin solution, 25 °C, aqueous with cosolvent or surfactant or cyclodextrin, thermodynamic from solid, α-CD 100 mM, stirring 3 h
PROPERTY_MEASURED: solubility at 3 h (µg/mL)
All answers are understood in µg/mL, so give the number only.

# input I'd like to know its solubility at 3 h. The compound in question is COc1ccc(-c2cc(=S)ss2)cc1 [AOL]
# output 8.83
